Origin of values: the supplement of paper PMC12042874

# assayExplanation: amyloid nucleation score (Sup35N fusion, yeast selection) (log enrichment); library NNK3; higher = more nucleation; inactive = no reads after selection;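 also: zero at mode of non-aggregating sequences after 7 days selection at 30°C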
parameterMeasured: amyloid nucleation score

1) TKAAMPRNNYLFILY; -0.278
2) MGTRFVLGPVQNLCDIGSAW; inactive
3) LIMLFHSWMSTRWYGVVSNS; inactive
4) HGPAMTSRSRNTSVLVLVSP; inactive
5) QCTASLEHHFVNNQDNASAW; inactive
6) SNVGSDDTFLVLLHSHSRSG; 0.72
7) LYVTILNVLLLHMTHSLFSG; inactive
8) YMDPWYVIDHCLWRQMFLSE; -0.557
9) SMYLYVAWARVLNDLDNID; inactive
10) SHRVNWFLCSCLESYFMCNT; -0.522
11) MRELQENVNDDS; inactive
12) SFCFFRVTLSCTC; inactive
13) HLFINL; inactive
14) ESVRGRLFRV; inactive
15) MDVARRMFLISYIFIIFVVR; inactive
16) SPHLLDWSKIAFLVSHMPHS; inactive
17) RVEIRIIS; inactive
18) MNKNIRGYDLFKMRMMDWCM; inactive
19) EFVDSLLKRGGLFRVFGASS; inactive
20) QYFFNRKL; inactive
21) VQLPVIVSAPPI; -0.421
22) GSVGSRADVFLGCGDEWRQA; inactive
23) IVWASTWTCCTN; 2.73
24) VAFFSGWQIVVLFMKVL; inactive
25) WCYDDGQA; inactive
26) RAPRVVIGCSMYMGMFSELE; 0.772
27) FLVPTLHYYLGRWQKKPMLY; inactive
28) KLVYFRVFKSRFRSRVGGMV; inactive
29) CVTCLARLHDGPEGIVHLCT; inactive
30) SSCMAFIMGWKYITMD; inactive
31) GSASHDPTACCFYGFV; inactive
32) FCLFLSCGDKSILGA; inactive
33) LIFRRCLCNSSCYDLIAGRG; inactive
34) TGSDAYSMRMPRQPPISFVV; inactive
35) FYVLHPCAPFVFPHQTTNIT; inactive
36) RRGNDRKRLWAVNLDTGNFL; inactive
37) YPCEVLGCDAN; inactive
38) YRTIVVLSNFFNILSFSKNQ; 0.718
39) VYVWSG; inactive
40) TFSNNYPFSRWGCFSVLAV; inactive
41) ATIGRVRGLKDPHLYQCAFM; inactive
42) VDYKLFNFDGVCITTVFVHY; 2.24
43) TKSMVKNLHALPSIKRGVFV; inactive
44) DGHWVALREKSFSNQYRSET; inactive
45) MIRRKRNAYMR; inactive
46) WSSWSRS; inactive
47) MYVTIGASNKSYRLLFVARW; -0.368
48) LDVVRRMLKTH; inactive
49) AVLEMQLTIW; inactive
50) YNMFNTLVDRVQLRGLCYGV; inactive
